Origin of values: ChEMBL document CHEMBL3596096

tested on: Trypanosoma cruzi; assay: Antitrypanosomal activity against trypomastigotes stage of Trypanosoma cruzi infected in human HT1080 cells assessed as inhibition of parasite growth at 10 uM after 24 hrs by microscopic analysis; format: functional, organism-based; details: HT-1080
The source made the active and inactive calls. The calls are words filed in the database; no cut-off is given here.
Please answer using one outcome listed in 1 (yes) (active), 0 (no) (inactive)

Below are worked cases with known answers.
| smiles_string | group |
| --- | --- |
| COc1c2c(c(OC)c(C(C)C)c1OC)C1(O)C[C@H]3C(C)(C)CCC[C@@]3(C2)O1 | 0 (no) |
| COc1cc(C[C@@]23CCCC(C)(C)[C@@H]2CC(=O)O3)c(OC)c(OC)c1C(C)C | 0 (no) |
| COc1c(C[C@@]23CCCC(C)(C)[C@@H]2CC(=O)O3)c(I)c(OC)c(C(C)C)c1OC | 0 (no) |

q: What did this assay record as the result for COC1=C(C(C)C)C(=O)C2=C(C[C@@]34CCCC(C)(C)[C@@H]3C[C@]2(O)O4)C1=O ?
a: 1 (yes)

q: What did this assay record as the result for COC1=C(C(C)C)C(=O)C(C(C)(C)O)=C(C)C1=O ?
a: 1 (yes)

q: What did this assay record as the result for COC1=C(C(C)C)C(=O)C=C(C[C@@]23CCCC(C)(C)[C@@H]2CC(=O)O3)C1=O ?
a: 1 (yes)

q: What did this assay record as the result for COC(=O)C[C@@H]1C(Cc2cc(OC)c(C(C)C)c(OC)c2OC)=CCCC1(C)C ?
a: 0 (no)

----------
system: Trypanosoma cruzi; assay: Antitrypanosomal activity against trypomastigotes stage of Trypanosoma cruzi infected in human HT1080 cells assessed as inhibition of parasite growth after 24 hrs by microscopic analysis; format: functional, organism-based; conditions: HT-1080, 24 h
pIC50: −log10 of the molar value.
Label 1 when pIC50 is at or above 6; anything below gets 0.

Below are worked cases with known answers.
| molecule | tested_on | group |
| --- | --- | --- |
| COC1=C(C(C)C)C(=O)C=C(CC(O)(Cn2cncn2)c2ccc(F)cc2F)C1=O (stereo unspecified) | Trypanosoma cruzi | 1 |
| COC1=C(C(C)C)C(=O)C=C(CN(C(=O)C2CCCCC2)C2CCCCC2)C1=O | Trypanosoma cruzi | 0 |
| COC1=C(C(C)C)C(=O)C=C(CNC(=O)C2CCCCC2)C1=O | Trypanosoma cruzi | 1 |

q: Check this molecule for pIC50 at or above 6: COC1=C(C(C)C)C(=O)C=C(CC2(O)CCCCC2)C1=O
a: 1

----------
tested on: Trypanosoma cruzi; experiment: Antitrypanosomal activity against trypomastigotes stage of Trypanosoma cruzi infected in human HT1080 cells assessed as inhibition of parasite growth after 24 hrs by microscopic analysis; format: functional, organism-based; details: HT-1080, 24 h
metric_name: IC50 (µM)
Numbers only; they are read as µM.

| smiles_string | metric_name | reported_measurement |
| --- | --- | --- |
| COC1=C(C(C)C)C(=O)C=C(CN(C)C(=O)C2CCCCC2)C1=O | IC50 | 1.1 |
| COC1=C(C(C)C)C(=O)C=C(CN2C(=O)CCc3ccccc32)C1=O | IC50 | 2 |

# input for lookup
q: Supply reported IC50 belonging to this compound: O=C(Cn1ccnc1[N+](=O)[O-])NCc1ccccc1
a: 6.8
